# System under test: human cloned muscarinic receptor (M2) (Homo sapiens)
# Sequence (P08172 whole entry): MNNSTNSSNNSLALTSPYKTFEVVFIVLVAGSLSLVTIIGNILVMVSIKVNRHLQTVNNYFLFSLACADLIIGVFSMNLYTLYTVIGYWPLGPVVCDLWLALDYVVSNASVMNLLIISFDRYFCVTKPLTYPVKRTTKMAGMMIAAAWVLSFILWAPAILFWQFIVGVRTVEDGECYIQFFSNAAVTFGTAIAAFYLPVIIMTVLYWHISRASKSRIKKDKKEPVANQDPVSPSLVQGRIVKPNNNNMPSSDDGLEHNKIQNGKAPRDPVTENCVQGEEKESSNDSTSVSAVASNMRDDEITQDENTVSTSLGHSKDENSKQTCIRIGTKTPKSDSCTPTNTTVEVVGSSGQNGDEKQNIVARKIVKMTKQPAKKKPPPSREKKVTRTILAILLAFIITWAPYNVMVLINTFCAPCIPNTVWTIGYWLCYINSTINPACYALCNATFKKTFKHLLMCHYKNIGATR
Assay endpoint: Kd (nM)
# output: bare number, implied unit nM

# get_value(readout= Kd, system= human cloned muscarinic receptor (M2) (Homo sapiens)) for COc1cccc(OC)c1CN1CCC(N(C)CCCCCCCN2CCC(OC(=O)Nc3ccccc3-c3ccccc3)CC2)CC1 [Compound D] 2
